Test system: RAW264.7
Assay: Anti-inflammatory activity against LPS-induced mouse RAW264.7 cells assessed as inhibition of NO production at 10 uM preincubated for 2 hrs followed by LPS addition and measured after 24 hrs by Griess reagent-based microplate reader analysis relative to control
Format: functional
Parameters: scale not given: the % may be the effect or the level left
Conditions: time 26 hrs
Activity: recorded values

{"columns": ["Molecule", "Scale Unit", "Activity"],
 "data": [
  ["CC1(C)CC[C@]2(C(=O)OCc3ccccc3)CC[C@]3(C)C(=CC[C@@H]4[C@@]5(C)CCC(=O)[C@@](C)(COC(=O)CNC(=O)CCCC[C@@H]6CCSS6)[C@@H]5CC[C@]43C)[C@@H]2C1", "%", 28.81],
  ["CC1(C)CC[C@]2(C(=O)OCc3ccccc3)CC[C@]3(C)C(=CC[C@@H]4[C@@]5(C)CCC(=O)[C@@](C)(CO)[C@@H]5CC[C@]43C)[C@@H]2C1", "%", 13.3],
  ["CC1(C)CC[C@]2(C(=O)OCc3ccccc3)CC[C@]3(C)C(=CC[C@@H]4[C@@]5(C)CCC(=O)[C@@](C)(COC(=O)CC#N)[C@@H]5CC[C@]43C)[C@@H]2C1", "%", 40.79],
  ["CC1(C)CC[C@]2(C(=O)OCc3ccccc3)CC[C@]3(C)C(=CC[C@@H]4[C@@]5(C)C/C(=C/c6cnccn6)C(=O)[C@@](C)(CO)[C@@H]5CC[C@]43C)[C@@H]2C1", "%", 4.56],
  ["CC1(C)CC[C@]2(C(=O)OCc3ccccc3)CC[C@]3(C)C(=CC[C@@H]4[C@@]5(C)CCC(=O)[C@@](C)(COC(=O)CCn6cccc6)[C@@H]5CC[C@]43C)[C@@H]2C1", "%", 7.3],
  ["CC1(C)CC[C@]2(C(=O)OCc3ccccc3)CC[C@]3(C)C(=CC[C@@H]4[C@@]5(C)C/C(=C/c6cccc(Br)c6)C(=O)[C@@](C)(CO)[C@@H]5CC[C@]43C)[C@@H]2C1", "%", 3.77],
  ["CC1(C)CC[C@]2(C(=O)OCc3ccccc3)CC[C@]3(C)C(=CC[C@@H]4[C@@]5(C)C/C(=C/c6ccccc6Br)C(=O)[C@@](C)(CO)[C@@H]5CC[C@]43C)[C@@H]2C1", "%", 5.33],
  ["CC1(C)CC[C@]2(C(=O)OCc3ccccc3)CC[C@]3(C)C(=CC[C@@H]4[C@@]5(C)CCC(=O)[C@@](C)(COC(=O)CCc6c[nH]c7ccccc67)[C@@H]5CC[C@]43C)[C@@H]2C1", "%", 0.17],
  ["CC(C)=CC(=O)OC[C@]1(C)C(=O)CC[C@@]2(C)[C@H]1CC[C@]1(C)[C@@H]2CC=C2[C@@H]3CC(C)(C)CC[C@]3(C(=O)OCc3ccccc3)CC[C@]21C", "%", 16.39],
  ["CC1(C)CC[C@]2(C(=O)OCc3ccccc3)CC[C@]3(C)C(=CC[C@@H]4[C@@]5(C)CCC(=O)[C@@](C)(COC(=O)CCC6CCCC6)[C@@H]5CC[C@]43C)[C@@H]2C1", "%", 0.34]
]}

Recorded values, source ChEMBL document CHEMBL5537127.
